# METHOD NOTES: Lactate dehydrogenase (LDH) cytotoxicity assay
# Assay type: cell-based, murine
# CONDITION SUMMARY: mouse, RAW 264.7 macrophage cells; LDH release from RAW 264.7 cells, 24 h after treatment
# Description: LDH assay was used to evaluate the toxicity of the studied samples towards macrophage cultures. The release of LDH (cytoplasmic enzyme lactate dehydrogenase) from RAW 264.7 cells treated with samples was determined using 50 µL of cell culture supernatant collected 24 h after the treatment, as described in the previous section. […] Tests were performed in triplicate and the mean value and standard deviation were calculated.
RECORDED METRIC: IC50 at 24 h

These recorded examples may help you get a feel for the data.
C=C1C[C@@H](O)CC(C)(C)[C@]12CCC(C)=C(Cl)C2 [Compound 3, Debromoelatol]: > 392 µM
CC1CCC23C1CCC2(C)CC(C)C3(C)O (stereo not shown) [Compound 5]: 416 µM
C=C1CC(O)C(Br)C(C)(C)C12CCC(C)(O)C(Cl)C2 (stereo not shown) [Compound 2]: > 284 µM

Now for a further compound.
According to the records, this compound C=C1CC[C@@H](Br)C(C)(C)[C@]12CC[C@](C)(Br)[C@@H](Cl)C2 [Compound 4, obtusane] displays IC50 at 24 h of 197 µM
